Each recorded value in this set is attributed to patent US7265129B2.

System: C. albicans ATCC 38247
Assay: MIC, antifungal assay, C. albicans
Assay type: cell-based, Candida albicans
endpoint name: Minimum Inhibitory Concentration (MIC), organism B

{"columns": ["cpd smiles", "reported result"],
 "data": [
  ["CN(C)CCCn1cc(NC(=O)c2ccc(F)cc2F)cc1C(=O)Nc1cc(-c2nc3ncncc3[nH]2)n(C)c1", ">32 µg/mL"],
  ["Cn1cc(NC(=O)c2cc(NC(=O)c3ccc(Cl)cc3F)cn2CCCN2CCC(O)CC2)cc1-c1nc2ccccc2[nH]1", "+ (12 ≦ MIC ≦ 32 μg/mL)"],
  ["CN(C)CCCn1cc(NC(=O)c2cc3ccccc3cn2)cc1C(=O)Nc1cc(-c2nc3ccncc3[nH]2)n(C)c1", ">32 µg/mL"],
  ["Cn1cc(NC(=O)c2cc(NC(=O)c3sccc3Cl)cn2CCC[n+]2ccccc2)cc1-c1nc2ccccc2[nH]1", ">32 µg/mL"],
  ["Cn1cc(NC(=O)c2cc(NC(=O)c3ccc(Cl)cc3F)cn2CCCN(CCO)CCO)cc1-c1nc2cccnc2[nH]1", ">32 µg/mL"],
  ["CC1CCN(CCCn2cc(NC(=O)c3ccc(Cl)cc3F)cc2C(=O)Nc2cc(-c3nc4ccccc4[nH]3)n(C)c2)CC1", "+ (12 ≦ MIC ≦ 32 μg/mL)"],
  ["CN(C)CCCn1cc(NC(=O)c2ccc(Cl)cc2F)cc1C(=O)Nc1cc(-c2nc3cncnc3[nH]2)n(C)c1", ">32 µg/mL"]
]}

----------
System: B. cereus ATCC 11778
Assay: MIC, NCCLS broth microdilution, B. cereus
Format: cell-based, Bacillus cereus
endpoint name: Minimum Inhibitory Concentration (MIC), organism A

{"columns": ["molecule", "target under test", "reported result"],
 "data": [
  ["Cn1cc(NC(=O)c2cc(NC(=O)c3sccc3Cl)cn2CCCN2CCOCC2)cc1-c1nc2ccccc2[nH]1 [Compound A-50]", "B. cereus ATCC 11778", "+++ (MIC ≦ 4 μg/mL)"],
  ["CN(C)CCCn1cc(NC(=O)c2sccc2Cl)cc1C(=O)Nc1cc(-c2nc3ncncc3[nH]2)n(C)c1 [Compound A-63]", "B. cereus ATCC 11778", ">32 µg/mL"],
  ["Cn1cc(NC(=O)c2cc(NC(=O)c3sc4ccccc4c3Cl)cn2CCCN2CCC(F)(F)CC2)cc1-c1nc2ccccc2[nH]1 [Compound A-25]", "B. cereus ATCC 11778", ">32 µg/mL"],
  ["CN(C)CCCn1cc(NC(=O)c2ccc(F)cc2F)cc1C(=O)Nc1cc(-c2nc3ccccc3[nH]2)n(C)c1 [Compound A-16]", "B. cereus ATCC 11778", "+++ (MIC ≦ 4 μg/mL)"]
]}

----------
Test system: S. aureus ATCC 13709
Assay: MIC, NCCLS broth microdilution, S. aureus MSSA
Type: cell-based, Staphylococcus aureus
Settings: S. aureus ATCC 13709, methicillin sensitive strain (MSSA)
endpoint name: Minimum Inhibitory Concentration (MIC), organism D

{"columns": ["cpd smiles", "reported result"],
 "data": [
  ["Cn1cc(NC(=O)c2cc(NC(=O)c3sc4ccccc4c3Cl)cn2CCCN2CCOCC2)cc1-c1nc2ccccc2[nH]1", "+++ (MIC ≦ 4 μg/mL)"],
  ["Cn1cc(NC(=O)c2cc3ccccc3cn2)cc1C(=O)Nc1cc(-c2nc3ccc(OCCN4CCOCC4)cc3[nH]2)n(C)c1", "+++ (MIC ≦ 4 μg/mL)"],
  ["Cn1cc(NC(=O)c2cc3ccccc3cn2)cc1C(=O)Nc1cc(-c2nc3ccc(N)cc3[nH]2)n(C)c1", "+++ (MIC ≦ 4 μg/mL)"]
]}
